Attribution: the supplement of paper PMC9170038

System: MS2 coat protein
Test: apparent KD of MS2 coat protein; designed switch direction (-1 OFF switch, 1 ON switch): -1; higher = weaker reporter binding
Settings: input ligand: none
Record form. Attribute: apparent KD of MS2 coat protein. Fill in for each entry.
Just so you know, I need the unit written after the number.

AAGAAUUAGUCAGGAUAUAGCGGCCAAGAACUACUAGAAGGGAUUAGACAUGAGGAUCACCCAUGUGAUCUUUUUGUAGGGACG [Eternabot solution 15] (Eterna round: R96, puzzle: Exclusion NG 1) has a reported apparent KD of MS2 coat protein of 41.2 nM

CCGGAAAGGAAGGAUAUGCUUGACGAAAGUCAAGCAGAAGGUCCUACAUGAGGAUCACCCAUGUGGCCUCCCGG [Mat - Exclusion 6 - Eli Mod - D48] (Eterna round: R97, puzzle: Exclusion 6) has a reported apparent KD of MS2 coat protein of 128 nM

GCACUGACAGGAUAUACAUGAGGAUCACCCAUGUGACCCUUGGAGUACUCGCGUACUCGUAGAAGGGUCUGUGC [Omei Ex3 Model Bachelor's Dilema v37] (Eterna round: R97, puzzle: Exclusion 3) has a reported apparent KD of MS2 coat protein of 35.9 nM

AAUAUGUGAGGAUAUUAGUUGUACGUCAAUAGACGUAUAAGUGAGAAGGCACAUGAGGAUCACCCAUGUUCCUG [Omei Ex4 Mod of Mat's R95 mod of Omei v3] (Eterna round: R97, puzzle: Exclusion 4) has a reported apparent KD of MS2 coat protein of 23.7 nM

GAUUAACAUGAGGAUCACCCAUGUGAGGAUAUGGACUUGCUCACUUUCCGAUUCGAGUCUAGAAGGCGCAUCUU [1986#116] (Eterna round: R97, puzzle: Exclusion 1) has a reported apparent KD of MS2 coat protein of 27.1 nM

* * *

Test system: MS2 coat protein
Assay: apparent KD of MS2 coat protein; designed switch direction (-1 OFF switch, 1 ON switch): -1; higher = weaker reporter binding
Details: input ligand: none
property label: apparent KD of MS2 coat protein (nM)
State the answer as a number, implicitly in nM.

CCGUUCCGUGUAGGAUAUUGGCCUUCCUCGGGCCGAGAAGGACAUGAGGAUCACCCAUGUAUGCUAUUAUCGCGCGUGGCGCAC [Design 97] (Eterna round: R96, puzzle: Exclusion NG 1) has a reported apparent KD of MS2 coat protein of 39.1

AAAUCUCACGUAAGGAUAUCCUGGGCAACGUCCACGGAGAAGGUACAUGAGGAUCACCCAUGUGCUCGCUAUAC [BmEX4 C.1] (Eterna round: R97, puzzle: Brourd's mod of Exclusion 4) has a reported apparent KD of MS2 coat protein of 19.7

AAUAACAUGUUGAUCAAAUACAUGAGGAUCACCCAUGUAUGCUUUUUGUUCGAUAAGAUCAACUAAUAAUAAUAAUA [StovNew/1-C] (Eterna round: R97, puzzle: Sensor, turn-off variant 1) has a reported apparent KD of MS2 coat protein of 12.6

CAAUAACAAGCGAGAUCCUACAUGAGGAUCACCCAUGUGCUCGUCUUAUAAGGUACUGUGACGAUAGUCACGGUACC [Mat - Sensor, turn-off var - Eli Mod - D97] (Eterna round: R97, puzzle: Sensor, turn-off variant 1) has a reported apparent KD of MS2 coat protein of 19.6

ACAUGAGGAUCACCCAUGUAAUCAUGAUGGCUGAUGUAGAGCUAGGAUAUGAGUGGCUUUCUAUCUCAGAAGGAGCUUGACUGG [Deportation 42 - Jieux - Exclusion NG 3] (Eterna round: R96, puzzle: Exclusion NG 3) has a reported apparent KD of MS2 coat protein of 37.2

AAGAUGUCAGGAUAUUAGUAGUAAAUGAAUAAAAUUAUUACUGAGAAGGGACAUGAGGAUCACCCAUGUGUCUU [Mat - Exclusion 4 - Eli Mod - D11] (Eterna round: R97, puzzle: Exclusion 4) has a reported apparent KD of MS2 coat protein of 19.8

UUAACAUGCUGGUGAUCAUACAUGAGGAUCACCCAUGUAACAAGCUUUUUGUUCGUCUUAUAAGAUCACCAGCAUGU [Stov1/9-B1] (Eterna round: R97, puzzle: Sensor, turn-off variant 1) has a reported apparent KD of MS2 coat protein of 17.2

CGAUAUAAGUCAGGAUAUGAGCGCAACUGACGAUCAGAAGGGACACAUGAGGAUCACCCAUGUGAUUUAUCAAUAUUAUACAUC [Prohibition 91 - Jieux - Exclusion NG 1] (Eterna round: R96, puzzle: Exclusion NG 1) has a reported apparent KD of MS2 coat protein of 31.6

UAACAUGUCUGAGGAUAUCUGCACGUUUAGUGCAGAGAAGGCAGAACAUGAGGAUCACCCAUGUAGAUCAUUAAUUAAUUAAUU [ENG1/7-B2] (Eterna round: R96, puzzle: Exclusion NG 1) has a reported apparent KD of MS2 coat protein of 194

* * *

Record form. Attribute: apparent KD of MS2 coat protein. Fill in for each entry.
Test system: MS2 coat protein
Assay: apparent KD of MS2 coat protein; designed switch direction (-1 OFF switch, 1 ON switch): -1; higher = weaker reporter binding
Conditions: input ligand: FMN 200 uM
State the answer as a number, implicitly in nM.

ACAUGUUGCGCAGGAUAUGAGACACAUGAGGAUCACCCAUGUGGCUACAUGUCAUACCAAGCGUCUCAGAAGGGUGUGAACAUG [Ex NG2 #34] (Eterna round: R96, puzzle: Exclusion NG 2) has a reported apparent KD of MS2 coat protein of 18.7

AUGUGCACGCUGCGGUCCUACAUGAGGAUCACCCAUGUGGUCUGGUGGCGUGGGUCGCCGGACUUGGCUCGUCUUGG [salish99_S_TOV1_R5_031] (Eterna round: R97, puzzle: Sensor, turn-off variant 1) has a reported apparent KD of MS2 coat protein of 15.6

AUAUUACAUGAGGAUCACCCAUGUGAGGAUAUGGAGAGCGACCGCCCGGUCGCGUACACCAGAAGGCGCAGGCG [1st #59] (Eterna round: R97, puzzle: Exclusion 1) has a reported apparent KD of MS2 coat protein of 85.7

* * *

Test system: K4 kissing-loop RNA reporter;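 also: bound reporter read as fluorescence of individual clusters on recovered sequencing chips by microscopy, with normalized cluster intensities fitted with a binding model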
Test: apparent KD of K4 kissing-loop reporter; higher = weaker reporter binding
Details: Eterna round: R107; input ligand: theophylline 20 uM
property label: apparent KD of K4 kissing-loop reporter (nM)
State the answer as a number, implicitly in nM.

GUCCCAGUGAUGUUGGUAGGCGAGCGGGAUACCAGCGAAGACUCACGCCCUUGGCAGCCCACAUAUCCCACGUAGGGAUUAGCUC [Same State - Theophylline A (Freestyle 20)] has a reported apparent KD of K4 kissing-loop reporter of 357

CAGAAGCAUUCGGCCGCCACUCCAGUGAUGUUGGAGCGGGAGGGCCUUAAACCUCGAGGCUGCUGGAGGACCGGGAAUGUUGAGG [Beerso] has a reported apparent KD of K4 kissing-loop reporter of 173

ACGAUCAUGUCGGCCGCCACUGAGAGUAGUGAUGUUACUUUUAUGUUUUAGUUAUAAUAUUUGAACAGGACCGGGACAUGUUCGU [JR_ExcTryptoB_Sub023] has a reported apparent KD of K4 kissing-loop reporter of 80.1

UCGGCAAAGUCGGCCGCCACUCCGGGCCCUAUAAAUGGGCGCAGUGAUGUUGCGGCUAGGCCUCUGAGGACCGGGACUUUGUAGA [Gebive] has a reported apparent KD of K4 kissing-loop reporter of 146

UGACAUUGCUCAGAUACCAGACUUGAGGAACACCCAAGUGCCAAAUACGUACAAAUAAAAGUCCCUUGGCAGCUGAGCAAUGUCU [TheoBX 12] has a reported apparent KD of K4 kissing-loop reporter of 148

CGCCGUAAGGCGGUCGCUCCCACUCCGGAAGGAGCGCCCGUAAGGGCAGGUAGGUCGCCGGAGUGAUGUUCCGGUGGAGGGACCG [#2 Exclusion - Arginine A Attempt #8 (Inspired by Omei)] has a reported apparent KD of K4 kissing-loop reporter of 352

UCGACAGUGAACGAUACCAGCGUCACGUGGCUGGUGGUCACAUGAGUGAUGUUCAUGUAACGCCCUUGGCAGCGUGCACGUAUCA [KL-XTheo-B8] has a reported apparent KD of K4 kissing-loop reporter of 125

UAAUCCUAGUGAUAAUAAUCAAGUGGUGGACGAGGACCGGUACGGCCGCCACUCGAAAAUGCAGUGAUGUUGUAAUCCGGAUAAU [Exclusion - Tryptophan A (Freestyle 4)] has a reported apparent KD of K4 kissing-loop reporter of 771

GCUAUGGUAGGAAGGAGCGCGGACGAAAUAUAUCGAGUGAUGUUCGAAUAAUUAAAUAAAACGCAGGUAGGUCGCCUACUAUAGC [Arginine B K4 25] has a reported apparent KD of K4 kissing-loop reporter of 120

AUUCUAUUGUGAAGGAGCGCGUAUAGUAGUGAUGUUACUAUAAUAAUAGAUAUUUAAUUCUCGCAGGUAGGUCGCACAAUAUAUA [JR_Nu_ExcArginiB_Sub025] has a reported apparent KD of K4 kissing-loop reporter of 85.6

CUGUUUUAGUCGGCCGCCACUGCAAGUGAUGUUUGGAGUAUUAUGCCGUUUCUGUCCAUUGAACCCAGGACCGGGACCGGAUCGU [theeternabot_exclusion_KL_Trp_B_8] has a reported apparent KD of K4 kissing-loop reporter of 186

CGCAAGCAGCCAGUGAUGUUGGCCGCCUUGCGAGGACCGGUACGGCCGCCACUCGAAGGCGGCUACUGGUAAACCGCCUAACGGA [Onzaenla] has a reported apparent KD of K4 kissing-loop reporter of 85.4
